Test system: Vero E6
Experiment: cell viability relative to DMSO; higher = less toxic
Settings: 72 h; 100 nM
Measurement Name: cell viability (%)

compound=CCCCCCCCOc1ccccc1C(=O)Nc1ccc(C(=O)OCC[N+](C)(CC)CC)cc1 readout_number=106
compound=O=C(O)[C@H](Cc1c[nH]c2ccccc12)N1C(=O)c2ccccc2C1=O readout_number=97.6
compound="COc1ccc2[nH]c([S+]([O-])Cc3ncc(C)c(OC)c3C)nc2c1 (configuration not stated) [omeprazole-magnesium]" readout_number=96.2
compound=CC(C)[C@H]1[C@@H]2CC[C@@H](C2)[C@@H]1N readout_number=88.5
compound=Cc1c(CN(C)C(=O)/C=C/c2cnc3c(c2)CCC(=O)N3)oc2ccccc12 readout_number=93.6
compound=CCCCC(=O)OCC(=O)[C@]1(O)Cc2c(O)c3c(c(O)c2[C@@H](O[C@H]2C[C@H](NC(=O)C(F)(F)F)[C@H](O)[C@H](C)O2)C1)C(=O)c1c(OC)cccc1C3=O readout_number=107
compound=Cn1cc(-c2[nH]c3cc(NC(=O)[C@H](N)C4CCCCC4)cc4c3c2C=NNC4=O)cn1 readout_number=98.3
compound=N[C@@]1(C(=O)O)CC[C@H]2[C@H](C(=O)O)[C@H]21 readout_number=94.9
compound="NS(=O)(=O)c1cc2c(cc1C(F)(F)F)NC(Cc1ccccc1)NS2(=O)=O (configuration not stated) [bendroflumethiazide]" readout_number=91.7
compound=CC(=O)Nc1ccc(S(=O)(=O)Nc2ccc([N+](=O)[O-])cc2)cc1 readout_number=97
compound=Nc1ccc(-c2nc3ccc(-c4nc5ccc(N)cc5[nH]4)cc3[nH]2)cc1 readout_number=89.7
compound=Cc1ncc(Cl)cc1NCc1ccc(C(=O)N[C@@H](CC2CCCC2)C(=O)NC2CC2)s1 readout_number=104
compound=N=C(N)N readout_number=82.2
compound=COc1ncc(-c2ccc3c(Nc4cc(Oc5cc(F)cc(F)c5)cc(C(=O)O)c4)c(S(=O)(=O)NC4CC4)cnc3c2)c(OC)n1 readout_number=99.9
compound="CC(C)[C@H]1C(=O)N[C@@H](CCCNC(=N)N)C(=O)NCC(=O)N[C@@H](CC(=O)O)C(=O)N[C@H](Cc2ccccc2)C(=O)N1C [cilengitide]" readout_number=98.8
compound=CC(C)c1noc(N2CCC(COc3ccc(-c4ccc(S(C)(=O)=O)cc4)nc3)CC2)n1 readout_number=98.8
compound=Oc1cc2c(cc1O)[C@@H]1c3ccc(O)c(O)c3OC[C@]1(O)C2 readout_number=92.7
